molecular target: Phosphodiesterase 4 (Homo sapiens, UniProt P27815+Q08499+Q07343+Q08493); conditions: Oryctolagus cuniculus; Kidney
Description: Susceptibility to be hydrolysed by a partially purified cAMP phosphodiesterase from rabbit kidney
Assay metric: Hydrolysis

O=P1(O)OC[C@H]2O[C@@H](n3c(Sc4ccc(Cl)cc4)nc4c(N5CCCCC5)ncnc43)[C@H](O)[C@@H]2O1; < 0.05

Exercise: Record lookup: for Phosphodiesterase 4 (Homo sapiens, UniProt P27815+Q08499+Q07343+Q08493), what Hydrolysis belongs to CSc1ncnc2c1ncn2[C@@H]1O[C@@H]2COP(=O)(O)O[C@H]2[C@H]1O ?
Key: 0.46

Exercise: Request body: readout Hydrolysis, system Phosphodiesterase 4 (Homo sapiens, UniProt P27815+Q08499+Q07343+Q08493), query CCCCNc1ncnc2c1nc(Br)n2[C@@H]1O[C@@H]2COP(=O)(O)O[C@H]2[C@H]1O . Return the value.
Key: < 0.05

Exercise: Missing value: Hydrolysis, Phosphodiesterase 4 (Homo sapiens, UniProt P27815+Q08499+Q07343+Q08493), entry Nc1ncnc2c1nc(S)n2[C@@H]1O[C@@H]2COP(=O)(O)O[C@H]2[C@H]1O . Fill in?
Key: < 0.05

Exercise: Kindly state the measured Hydrolysis obtained for Nc1ncnc2c1nc(Sc1ccccc1)n2[C@@H]1O[C@@H]2COP(=O)(O)O[C@H]2[C@H]1O with Phosphodiesterase 4 (Homo sapiens, UniProt P27815+Q08499+Q07343+Q08493).
Key: < 0.05

Exercise: # query: Hydrolysis | item C=CCSc1nc2c(N)ncnc2n1[C@@H]1O[C@@H]2COP(=O)(O)O[C@H]2[C@H]1O | system: Phosphodiesterase 4 (Homo sapiens, UniProt P27815+Q08499+Q07343+Q08493)
Key: < 0.05

Exercise: Query the reported Hydrolysis for Phosphodiesterase 4 (Homo sapiens, UniProt P27815+Q08499+Q07343+Q08493); item: Nc1ncnc2c1nc(O)n2[C@@H]1O[C@@H]2COP(=O)(O)O[C@H]2[C@H]1O
Key: < 0.05

Exercise: Could you share what Hydrolysis was measured for CCCNc1ncnc2c1nc(SCc1ccccc1)n2[C@@H]1O[C@@H]2COP(=O)(O)O[C@H]2[C@H]1O , tested on Phosphodiesterase 4 (Homo sapiens, UniProt P27815+Q08499+Q07343+Q08493)?
Key: < 0.05

Exercise: Value wanted: Hydrolysis (Phosphodiesterase 4 (Homo sapiens, UniProt P27815+Q08499+Q07343+Q08493)) of entry CC(C)CCNc1ncnc2c1nc(SCc1ccccc1)n2[C@@H]1O[C@@H]2COP(=O)(O)O[C@H]2[C@H]1O
Key: < 0.05

Exercise: Look up Hydrolysis with Phosphodiesterase 4 (Homo sapiens, UniProt P27815+Q08499+Q07343+Q08493) for this molecule: Nc1ncnc2c1nc(SCc1cccnc1)n2[C@@H]1O[C@@H]2COP(=O)(O)O[C@H]2[C@H]1O
Key: < 0.05

Exercise: Hi! What's the reported Hydrolysis for CCCCCSc1nc2c(N)ncnc2n1[C@@H]1O[C@@H]2COP(=O)(O)O[C@H]2[C@H]1O on Phosphodiesterase 4 (Homo sapiens, UniProt P27815+Q08499+Q07343+Q08493)?
Key: < 0.05

Exercise: Request: Hydrolysis, test system Phosphodiesterase 4 (Homo sapiens, UniProt P27815+Q08499+Q07343+Q08493), entry CCCCNc1ncnc2c1ncn2[C@@H]1O[C@@H]2COP(=O)(O)O[C@H]2[C@H]1O
Key: 0.21

Exercise: // lookup Hydrolysis | system=Phosphodiesterase 4 (Homo sapiens, UniProt P27815+Q08499+Q07343+Q08493) | key= CCN(CC)c1ncnc2c1nc(Cl)n2[C@@H]1O[C@@H]2COP(=O)(O)O[C@H]2[C@H]1O
Key: 0.1

Exercise: Request: Hydrolysis, test system Phosphodiesterase 4 (Homo sapiens, UniProt P27815+Q08499+Q07343+Q08493), entry CCCCNc1ncnc2c1nc(SC)n2[C@@H]1O[C@@H]2COP(=O)(O)O[C@H]2[C@H]1O
Key: 0.26

Exercise: Request: Hydrolysis, test system Phosphodiesterase 4 (Homo sapiens, UniProt P27815+Q08499+Q07343+Q08493), entry CCN(CC)c1ncnc2c1ncn2[C@@H]1O[C@@H]2COP(=O)(O)O[C@H]2[C@H]1O
Key: 0.09

Exercise: What Hydrolysis appears in the records for this molecule with Phosphodiesterase 4 (Homo sapiens, UniProt P27815+Q08499+Q07343+Q08493)? O=P1(O)OC[C@H]2O[C@@H](n3c(Sc4ccc(Cl)cc4)nc4c(Nc5ccccc5)ncnc43)[C@H](O)[C@@H]2O1
Key: < 0.05

The values you see were collected from ChEMBL document CHEMBL1121590.
